test system: RXF 393 renal; test: NCI-60 one-dose screen, 48 h; details: 10 µM unless noted
The panel holds about 83,000 compounds, 20% with a hit somewhere; the sample as a whole holds those more often. Active and inactive are the calls of the source. How the source made its calls: active means growth percent below 10; inactive means the rest.
Answer with one of the outcomes given here: T (active), F (inactive)

Exercise: Please indicate how the test categorized Cn1cnc2c(F)c(Nc3ccc(Br)cc3F)c(C(=O)NOCCO)cc21 .
Solution: F

Exercise: Please indicate how the test categorized O=C(NCCO)Nc1ccc(-c2nc(N3CCOCC3)c3cccn3n2)cc1 .
Solution: T

Exercise: Please indicate how the test categorized O=C(NC[C@H](O)CO)c1ccncc1Nc1ccc(I)cc1F .
Solution: F

Exercise: Please indicate how the test categorized C[C@@]1(C(=O)Nc2ccc(F)nc2)CCCN1c1nc(Nc2cc(C3CC3)[nH]n2)c2cccn2n1 .
Solution: T

Exercise: Please indicate how the test categorized Cc1cc(-c2cc(O)ccc2Cl)cc2nnc(Nc3ccc(OCCN4CCCC4)cc3)nc12 .
Solution: T

Exercise: Please indicate how the test categorized Cc1cc([C@@H](C)Nc2ccccc2C(=O)O)c2nc(N3CCOCC3)cc(=O)n2c1 .
Solution: T

Exercise: Please indicate how the test categorized Cc1nc(Nc2n[nH]c3c2CN(C(=O)N[C@H](CN(C)C)c2ccccc2)C3(C)C)c2sccc2n1 .
Solution: T

Exercise: Please indicate how the test categorized Cc1c(CN2CCN(C(=O)[C@H](C)O)CC2)sc2c(N3CCOCC3)nc(-c3cnc(N)nc3)nc12 .
Solution: T

Exercise: Please indicate how the test categorized c1ccc2c(c1)CCN(NCCN1CCCC1)C2 .
Solution: F

Exercise: Please indicate how the test categorized Oc1ccc(C(c2ccc(O)cc2)C(Cl)(Cl)Cl)cc1 .
Solution: F

Exercise: Please indicate how the test categorized O=C1NC(=O)/C(=C/c2ccc3nccc(-c4ccncc4)c3c2)S1 .
Solution: T

Exercise: Please indicate how the test categorized FC(F)(F)c1ccc(CNc2ccc(Cc3c[nH]c4ncc(Cl)cc34)cn2)cn1 .
Solution: T

Exercise: Please indicate how the test categorized COc1ccc(Cc2cc(-c3ccccc3C)n[nH]c2=O)cc1 .
Solution: F

Exercise: Please indicate how the test categorized Cc1nc2cc(-c3nn(C(C)C)c4ncnc(N)c34)ccc2o1 .
Solution: T

Exercise: Please indicate how the test categorized Nc1ccc(S(=O)(=O)O)c2cc(S(=O)(=O)O)cc(O)c12 .
Solution: F

Exercise: Please indicate how the test categorized COC(=O)CCCNc1c(-c2c(O)c(O)cc3c(O)c(-c4c(C)cc5c(-c6nc7ccccn7c6NCCCC(=O)OC)c(O)c(O)cc5c4O)c(C)cc23)nc2ccccn12 .
Solution: F

Exercise: Please indicate how the test categorized O=C(CNc1nc2ccccc2s1)Nc1ccc(-c2nc3ccccc3s2)cc1 .
Solution: F

Exercise: Please indicate how the test categorized CCc1nc2cc(F)c(/C=C/C(=O)NO)cc2c(=O)n1CCc1ccccc1 .
Solution: T

Exercise: Please indicate how the test categorized COCC(=O)NC/C=C/c1ccc2ncnc(Nc3ccc(Oc4ccc(C)nc4)c(C)c3)c2c1 .
Solution: F

Exercise: Please indicate how the test categorized c1cn2cc(-c3ccc4cn[nH]c4c3)nc(Nc3ccc(N4CCOCC4)cc3)c2n1 .
Solution: F
